Molecular target: M4 muscarinic receptor (Homo sapiens)
Construct: expressed in transfected cells; host or cells: CHO cells (M4-CHO, under puromycin, zeocin and blasticidin selection)
Sequence (P08173 1-479): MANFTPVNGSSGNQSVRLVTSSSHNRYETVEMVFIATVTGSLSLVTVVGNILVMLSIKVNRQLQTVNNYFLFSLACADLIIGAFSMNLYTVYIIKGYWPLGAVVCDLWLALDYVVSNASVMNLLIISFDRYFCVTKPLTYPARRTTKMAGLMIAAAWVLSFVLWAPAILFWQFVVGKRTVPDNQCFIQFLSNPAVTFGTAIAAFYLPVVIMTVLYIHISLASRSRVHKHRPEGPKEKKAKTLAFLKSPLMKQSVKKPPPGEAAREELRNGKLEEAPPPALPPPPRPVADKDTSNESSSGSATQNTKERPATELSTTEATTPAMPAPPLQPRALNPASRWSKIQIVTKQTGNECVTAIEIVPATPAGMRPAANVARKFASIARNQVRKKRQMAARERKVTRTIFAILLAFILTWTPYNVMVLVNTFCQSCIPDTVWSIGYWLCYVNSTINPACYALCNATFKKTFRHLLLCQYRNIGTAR
Experiment: Functional mobilization of intracellular calcium (FLIPR, Fluo-3), M4-CHO cells
Type: cell-based
Details: compound nos. 1-454; 100% efficacy is the maximum response obtained with the Carbachol control; read-out: M4 Efficacy
Endpoint label: Emax

Observe how each entry below is paired with its result.
Molecule | Data value
CC(=O)N1CC2(CCN(C3CCCC(C(F)(F)F)C3)CC2)c2cc(F)ccc21 (stereo not drawn) | < 55%
CN(C)C(=O)N1CC2(CCN(C3CCN(c4ccc(F)cc4)CC3)CC2)c2cc(F)ccc21 | < 55%
CCOC(=O)N1CCC(N2CCC3(CC2)CN(C(=O)c2ccccn2)c2ccc(F)cc23)CC1 | < 55%
CCOC(=O)N1CCC(N2CCC3(CC2)CN(C(C)=O)c2ccc(-c4cccc(C#N)c4)cc23)CC1 | > 70%
CCOC(=O)N1C2CCC1CC(N1CCC3(CC1)CC(NC(C)=O)c1ccccc13)C2 (stereo not drawn) | > 70%

Ask: Missing value: Emax, M4 muscarinic receptor (Homo sapiens), entry CCCCOC(=O)N1C2CCC1CC(N1CCC3(CC1)COc1ccc(F)cc13)C2 (stereo not drawn) . Fill in?
Reply: < 55%

Ask: // lookup Emax | system=M4 muscarinic receptor (Homo sapiens) | key= O=C(C1CCC1)N1C2CCC1CC(N1CCC3(CC1)COc1ccc(F)cc13)C2 (stereo not drawn)
Reply: < 55%

Ask: Write down the reported Emax of `CCOC(=O)N1CCC(N2CCC3(CC2)CN(C(=O)c2cccnc2)c2ccc(F)cc23)CC1` , test system: M4 muscarinic receptor (Homo sapiens).
Reply: > 70%

Ask: Lab request: please report Emax under test system M4 muscarinic receptor (Homo sapiens) for Cc1ccc2c(c1)C1(CCN(CC3CC4CCC3O4)CC1)CN2 (stereo not drawn)
Reply: > 70%

====

Below, each entry is listed with its recorded Emax.
target: M4 muscarinic receptor (Homo sapiens, UniProt P08173); construct: expressed in transfected cells; host or cells: CHO cells (M4-CHO, under puromycin, zeocin and blasticidin selection); test: Functional mobilization of intracellular calcium (FLIPR, Fluo-3), M4-CHO cells; format: cell-based; conditions: compound nos. 1-454; 100% efficacy is the maximum response obtained with the Carbachol control; read-out: M4 Efficacy

Completed entries (count: 3):
Molecule | Emax
CC(=O)N1CC2(CCN(C3CCC4(CC3)CC(C)=NO4)CC2)c2cc(F)ccc21 (stereo not shown) | < 55%
Clc1ccc2c(c1)C1(CCN(CC3CCCCC3)CC1)CN2 | > 70%
CCOC(=O)N1C2CCC1CC(N1CCC3(CC1)CN(C(=O)c1ccc(F)cc1)c1ccc(F)cc13)C2 (stereo not shown) | < 55%

Shift focus to the following entry.
Ask: Requested field: Emax. Item: `CCCOC(=O)N1CCC(CN2CCC3(CC2)C[C@H](NC(C)=O)c2ccccc23)CC1`
Reply: > 70%
